src = patent US8318943B1

Procedure text: Approximate solubility tests in selected solvents
Assay type: physicochemical
Test conditions: methanol, organic solvent or mixture; read-out: Solubility [S, mg/ml]
Excerpt: A sample of dexlansoprazole sesquihydrate was characterized by FT-Raman spectroscopy, XRPD, ^1H-NMR and approximate solubility tests. Accordingly, ethanol, ethyl acetate, acetonitrile, and THF were chosen as solvents for the co-crystal screening.
Result type: solubility

Can you share its solubility? I mean this compound: Cc1c(OCC(F)(F)F)ccnc1C[S@@+]([O-])c1nc2ccccc2[nH]1 [SP134-FD-P1, dexlansoprazole sesquihydrate, reference compound]
~204 mg/mL

###

Procedure text: physchem
Test conditions: MeOH, organic solvent or mixture, thermodynamic from solid
// reported solubility per item

[
  {
    "Compound": "Cc1c(OCC(F)(F)F)ccnc1C[S@@+]([O-])c1nc2ccccc2[nH]1 [SP134-FD-P1, dexlansoprazole sesquihydrate, reference compound]",
    "Observed": "> 200 mg/mL"
  }
]

Okay, now this compound:
Can you share its solubility? I mean this compound: OC[C@@H](O)[C@@H](O)[C@H](O)[C@@H](O)CO [Sorbitol, D-sorbitol]
~13 mg/mL
